- Test system: Saccharomyces cerevisiae
- experiment-description: protein stability index of tFT-peptide fusion (C-terminal peptide) (PSI (0-1 scale)); higher = more stable (slower turnover)
- condition-set: genetic background: das1 deletion; temperature: 30 C
sequences and their reported protein stability index
Keep the answer to the number alone.

- monomer-sequence: "GKLAEILKPVFQ [GRX2 C-terminal 12 aa]"
  protein stability index: 0.706
- monomer-sequence: "SNSSICFPLTIF [YKL136W C-terminal 12 aa]"
  protein stability index: 0.634
- monomer-sequence: "LADEEDAIHDEL [PDI1 C-terminal 12 aa]"
  protein stability index: 0.686
- monomer-sequence: "RRCDDMLYYIQN [POP4 C-terminal 12 aa]"
  protein stability index: 0.716
- monomer-sequence: "IREFLEEIVDTQ [SUS1 C-terminal 12 aa]"
  protein stability index: 0.725

-- ask Using the record for GLNEVTRLIKGL [HTS1 C-terminal 12 aa] , report its protein stability index.
-- reply 0.695

-- ask Using the record for SGEAAEEAEDEE [RPS9B C-terminal 12 aa] , report its protein stability index.
-- reply 0.652

-- ask Using the record for EKVNEILRSTEK [GCD14 C-terminal 12 aa] , report its protein stability index.
-- reply 0.69

-- ask Using the record for VFLIISQHSLHS [YBL113W-A C-terminal 12 aa] , report its protein stability index.
-- reply 0.665

-- ask Using the record for LIHNFNSRYCHE [LEE1 C-terminal 12 aa] , report its protein stability index.
-- reply 0.725

-- ask Using the record for KGNSMVVHGAQS [SHE3 C-terminal 12 aa] , report its protein stability index.
-- reply 0.687

-- ask Using the record for YIVECIKNVLTK [APL3 C-terminal 12 aa] , report its protein stability index.
-- reply 0.686

-- ask Using the record for NDLITYMTKAAK [CYC7 C-terminal 12 aa] , report its protein stability index.
-- reply 0.722

-- ask Using the record for GLEHSDPFSTFY [DBF2 C-terminal 12 aa] , report its protein stability index.
-- reply 0.712
